# ASSAY SETUP: in 2,2,4-trimethylpentane, 298.2 K
MEASUREMENT KIND: solubility (mole fraction)

P = c1ccc2c(c1)ccc1ccccc12
Q = c1ccc2cc3ccccc3cc2c1
Q. So which one has the bigger solubility (mole fraction) here, P or Q ? Return value: the label identifying the chosen record.
A. P

###

# ASSAY SETUP: in ethanol, 318.2 K
MEASUREMENT KIND: solubility (mole fraction)

1 = c1ccc2cc3ccccc3cc2c1
2 = c1ccc2c(c1)ccc1ccccc12
Q. Which value of solubility (mole fraction) is greater, the one for 1 or the one for 2 ? Use the label to indicate which entry you chose.
A. 2

###

# ASSAY SETUP: in 2,2,4-trimethylpentane, 308.2 K
MEASUREMENT KIND: solubility (mole fraction)

a = c1ccc2c(c1)ccc1ccccc12
b = c1ccc2cc3ccccc3cc2c1
Q. Between a and b , which one shows the smaller solubility (mole fraction) number? To answer, give the label that identifies your chosen option.
A. b
(b: 0.00152, a: 0.0378)

###

# ASSAY SETUP: in ethanol, 308.2 K
MEASUREMENT KIND: solubility (mole fraction)

a = c1ccc2c(c1)ccc1ccccc12
b = c1ccc2cc3ccccc3cc2c1
Q. Given a and b , report the one with the higher recorded solubility (mole fraction). Pick one; state its label.
A. a

###

# ASSAY SETUP: in 2,2,4-trimethylpentane, 318.2 K
MEASUREMENT KIND: solubility (mole fraction)

A = c1ccc2c(c1)ccc1ccccc12
B = c1ccc2cc3ccccc3cc2c1
Q. // max by solubility (mole fraction) over [ A , B ] // respond with label for picked entry
A. A

###

# ASSAY SETUP: in ethanol, 298.2 K
MEASUREMENT KIND: solubility (mole fraction)

A = c1ccc2c(c1)ccc1ccccc12
B = c1ccc2cc3ccccc3cc2c1
Q. Which value of solubility (mole fraction) is smaller, the one for A or the one for B ? Write the label of whichever entry you select.
A. B
(B: 0.000505, A: 0.0119)

Data provenance is BigSolDB 2.1.
